Where do these numbers come from? They come from PubChem BioAssay (NCI).

Tested on: OVCAR-4 ovarian
EXPERIMENT_DESCRIPTION: NCI tumour cell line growth inhibition, 48 h
MEASURED_METRIC: TGI

molecule="COC1/C=C\\OC2(C)Oc3c(C)c(O)c4c(O)c(c(/C=N\\OCCCc5ccccc5)c(O)c4c3C2=O)NC(=O)/C(C)=C\\C=C/C(C)C(O)C(C)C(O)C(C)C(OC(C)=O)C1C (stereo not given)" target_of_assay="OVCAR-4 ovarian" measured="12.6 µM"
molecule=CN(C)Cc1cc(N=Nc2ccccc2Cl)ccc1O target_of_assay="OVCAR-4 ovarian" measured="> 100 µM"
molecule=CCOC(=O)c1ccc(NC(=O)O/N=C(/Cl)C(C)C)cc1 target_of_assay="OVCAR-4 ovarian" measured="28.4 µM"
molecule=NC(=O)c1ccc2nc(-c3ccc(C4(N)CCC4)cc3)c(-c3ccccc3)n2n1 target_of_assay="OVCAR-4 ovarian" measured="44.6 µM"
molecule="Cc1ccc(S(=O)(=O)NC(=O)NC(C(=O)O)C(C)O)cc1 (stereo not given)" target_of_assay="OVCAR-4 ovarian" measured="> 100 µM"
molecule="FC(F)(F)c1ccc2c(c1)nc(Cc1ccc(Cl)c(Cl)c1)n2CC1CCCN2CCCCC12 (stereo not given)" target_of_assay="OVCAR-4 ovarian" measured="> 100 µM"
molecule=Cc1cccc(Cl)c1NC(N)=S target_of_assay="OVCAR-4 ovarian" measured="> 100 µM"
molecule="CCCCC1C(=O)N(c2ccc(S(=O)(=O)Nc3ccccn3)cc2)N(c2ccc(O)c(C(=O)O)c2)C1=O (stereo not given)" target_of_assay="OVCAR-4 ovarian" measured="> 100 µM"
molecule=Cc1ccc(C(=O)OC(C)C)cc1N=NN(C)C target_of_assay="OVCAR-4 ovarian" measured="> 100 µM"
molecule="C[n+]1c2ccccc2c(C(=O)NC(CCCN=C(N)N)C(=O)O)c2ccccc21 (stereo not given)" target_of_assay="OVCAR-4 ovarian" measured="> 100 µM"
